The values you see were collected from patent US4590061A.

# Approximate Retention time (in oral tissues) per entry
Assay: Approximate retention times in oral tissues
Settings: alkaloids found in extracts from Sanguinaria canadensis

Please review the following examples before continuing.
# Compound, Data Value
rows = [
    ("COc1cc2ccc3c4c(OC)cc5c(c4c[n+](C)c3c2cc1OC)OCO5 [Sanguirubine]", "12.5 to 13.0 min"),
    ("COc1cc2c(c3c[n+](C)c4c5cc6c(cc5ccc4c13)OCO6)OCO2 [Chelirubine]", "~7.5 min"),
    ("COc1cc(OC)c2c(c[n+](C)c3c4cc5c(cc4ccc23)OCO5)c1OC [Chelilutine]", "15.5 to 16.0 min"),
]

What does the record list as Approximate Retention time (in oral tissues) for C[n+]1cc2c3c(ccc2c2ccc4cc5c(cc4c21)OCO5)OCO3 [Sanguinarine] ?
9.5 to 10.0 min

What does the record list as Approximate Retention time (in oral tissues) for COc1cc2ccc3c4c(OC)cc(OC)c(OC)c4c[n+](C)c3c2cc1OC [Sanguilutine] ?
18.5 to 19.0 min
